Values were extracted from ChEMBL document CHEMBL1201862.

Notes on AC50 obtained with Cytochrome P450 3A4 (Homo sapiens).
Sequence (P08684 whole entry): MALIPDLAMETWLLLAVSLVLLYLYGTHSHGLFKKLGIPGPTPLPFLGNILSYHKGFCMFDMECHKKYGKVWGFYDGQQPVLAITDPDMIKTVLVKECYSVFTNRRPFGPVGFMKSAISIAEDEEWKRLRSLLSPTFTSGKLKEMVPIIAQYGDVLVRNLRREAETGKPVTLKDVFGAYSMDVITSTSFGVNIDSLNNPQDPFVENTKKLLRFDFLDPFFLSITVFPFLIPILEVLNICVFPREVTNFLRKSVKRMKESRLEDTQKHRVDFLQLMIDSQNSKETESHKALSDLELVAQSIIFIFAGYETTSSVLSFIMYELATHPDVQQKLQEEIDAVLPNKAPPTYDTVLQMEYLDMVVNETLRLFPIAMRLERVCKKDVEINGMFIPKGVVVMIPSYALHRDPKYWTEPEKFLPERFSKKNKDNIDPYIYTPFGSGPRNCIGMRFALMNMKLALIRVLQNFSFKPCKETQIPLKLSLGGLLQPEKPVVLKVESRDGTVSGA

molecule: CC1(C)CC(=O)C(C(C#Cc2ccccc2)C2=C(O)CC(C)(C)CC2=O)=C(O)C1
testSystem: Cytochrome P450 3A4 (Homo sapiens)
AC50: 31.6 µM (inconclusive)
//
molecule: CS(=O)(=O)N1CCC2(CCCN(C(=O)Nc3cccc(F)c3)C2)CC1
testSystem: Cytochrome P450 3A4 (Homo sapiens)
AC50: 20 µM (inconclusive)
//
molecule: Cn1c2ccccc2c2cc(C(=O)N3CCOCC3)sc21
testSystem: Cytochrome P450 3A4 (Homo sapiens)
AC50: 28.2 µM (inconclusive)
//
molecule: CC1(C)C(=O)N=C2C1=C(O)C(=O)c1ccccc12
testSystem: Cytochrome P450 3A4 (Homo sapiens)
AC50: 31.6 µM (inconclusive)
//
molecule: O=C(NC1CCCCC1)C12CC3CC(C1)CC(n1cncn1)(C3)C2
testSystem: Cytochrome P450 3A4 (Homo sapiens)
AC50: 3.55 µM (inconclusive)

Query string: Request - read-out AC50 | tested on Cytochrome P450 3A4 (Homo sapiens) | molecule `Cc1cc(NC(=S)NC(=O)CC(C)C)ccc1Br`
Result string: 20 µM (inconclusive)

Query string: Request - read-out AC50 | tested on Cytochrome P450 3A4 (Homo sapiens) | molecule `Cn1c(-c2ccc(CN3CCCCC3)o2)nc2ccccc21`
Result string: 28.2 µM (inconclusive)

Query string: Request - read-out AC50 | tested on Cytochrome P450 3A4 (Homo sapiens) | molecule `O=[N+]([O-])c1ccc(N2CCC(=NOCc3ccc(Cl)cc3)CC2)cc1`
Result string: 35.5 µM (inconclusive)

Query string: Request - read-out AC50 | tested on Cytochrome P450 3A4 (Homo sapiens) | molecule `COCCn1c(=O)c(-c2cn(C)c3ccccc23)nc2cnc(OCc3ccccc3)nc21`
Result string: 7.94 µM (inconclusive)

Query string: Request - read-out AC50 | tested on Cytochrome P450 3A4 (Homo sapiens) | molecule CC(C)C(CCNC(=O)CC(Cc1ccccc1)c1ccco1)c1ccco1 (configuration not stated)
Result string: 39.8 µM (inconclusive)

Query string: Request - read-out AC50 | tested on Cytochrome P450 3A4 (Homo sapiens) | molecule `CCOc1ccc2nc(C)cc(Nc3ccc4c(c3)OCCO4)c2c1`
Result string: 25.1 µM (inconclusive)

Query string: Request - read-out AC50 | tested on Cytochrome P450 3A4 (Homo sapiens) | molecule `Cc1cc(C(F)(F)F)nn1CC(=O)Nc1cccnc1`;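 note: CYP3A4 tested as one member of a cytochrome P450 panel screen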
Result string: 25.1 µM (inconclusive)
